- TARGET_ENTITY: human hNET (Homo sapiens, UniProt P23975)
- Construct: expressed in transfected cells; host or cells: MDCK-Net6 (MDCK cells stably transfected with hNET)
- Sequence (P23975 whole entry): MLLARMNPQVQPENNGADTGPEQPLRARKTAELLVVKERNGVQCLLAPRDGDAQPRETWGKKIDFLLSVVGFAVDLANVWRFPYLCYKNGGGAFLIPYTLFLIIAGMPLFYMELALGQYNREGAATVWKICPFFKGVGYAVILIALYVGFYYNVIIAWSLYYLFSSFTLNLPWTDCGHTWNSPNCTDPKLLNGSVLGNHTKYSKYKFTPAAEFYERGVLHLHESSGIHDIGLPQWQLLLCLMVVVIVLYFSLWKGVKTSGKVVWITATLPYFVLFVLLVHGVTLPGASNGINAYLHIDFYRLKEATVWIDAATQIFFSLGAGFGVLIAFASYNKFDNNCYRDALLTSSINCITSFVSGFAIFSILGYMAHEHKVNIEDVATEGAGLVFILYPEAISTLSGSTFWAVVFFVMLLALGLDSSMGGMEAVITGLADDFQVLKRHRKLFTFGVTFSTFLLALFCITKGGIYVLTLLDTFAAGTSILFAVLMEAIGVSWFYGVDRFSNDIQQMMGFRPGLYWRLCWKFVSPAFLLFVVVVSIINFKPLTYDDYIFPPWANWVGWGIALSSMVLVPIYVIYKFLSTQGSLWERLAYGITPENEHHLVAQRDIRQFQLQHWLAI
- TEST_PROTOCOL: Functional norepinephrine reuptake assay, Procedure B (6,000 cells/well)
- Type: cell-based
- MEASUREMENT_PARAMETERS: MDCK-Net6 cells, 6,000 cells/well, 16 nM 3H-norepinephrine; read-out: Procedure B hNET uptake IC50
pIC50: −log10 of the molar value. Counter-ions that a name gives are not always drawn.
The label depends only on pIC50: satisfied if it is at least 6, not satisfied if it is smaller.

{"COMPOUND": "CNCCC[C@H]1Cc2cc(F)ccc2N(c2ccccc2C)S1(=O)=O (single isomer, unassigned)", "CATEGORY": "satisfied"}
{"COMPOUND": "CCCNCCCC1Oc2ccccc2N(c2ccccc2)S1(=O)=O (centres unmarked)", "CATEGORY": "not satisfied"}
{"COMPOUND": "CNCCCC1Cc2ccccc2N(c2cccnc2)S1(=O)=O (racemic)", "CATEGORY": "satisfied"}
{"COMPOUND": "NCCCC1Oc2ccccc2N(c2ccccc2)S1(=O)=O (centres unmarked)", "CATEGORY": "satisfied"}
{"COMPOUND": "CNCCC[C@H]1Cc2cc(F)ccc2N(c2ccccc2C#N)S1(=O)=O (single isomer, unassigned)", "CATEGORY": "satisfied"}
{"COMPOUND": "CCCNCCC1Oc2ccccc2N(c2ccccc2)S1(=O)=O (centres unmarked)", "CATEGORY": "not satisfied"}
{"COMPOUND": "CNCCCC1Sc2ccccc2N(c2cccc(Cl)c2)S1(=O)=O (centres unmarked) [Example 66, Hydrochloride]", "CATEGORY": "not satisfied"}

----------
- TARGET_ENTITY: human hNET (Homo sapiens)
- Construct: expressed in transfected cells; host or cells: MDCK-Net6 (MDCK cells stably transfected with hNET)
- TEST_PROTOCOL: Functional norepinephrine reuptake assay, Procedure B (6,000 cells/well)
- Assay type: cell-based
Quick reference for log10(IC50) among some compounds
MEASUREMENT_LABEL: log10(IC50) (log10 of the value in nM)

{"COMPOUND": "CNCCC[C@@H]1Cc2cc(F)ccc2N(c2c(F)cccc2F)S1(=O)=O (single isomer, unassigned)", "log10(IC50)": 1.43}
{"COMPOUND": "CNCCC[C@H]1Cc2ccccc2N(c2c(F)cccc2F)S1(=O)=O (single isomer, unassigned)", "log10(IC50)": 1.72}
{"COMPOUND": "CNCCC[C@@H]1Cc2cc(F)ccc2N(c2ccccc2F)S1(=O)=O (single isomer, unassigned)", "log10(IC50)": 1.04}
{"COMPOUND": "CNCCC[C@@H]1Cc2ccccc2N(c2c(F)cccc2F)S1(=O)=O (single isomer, unassigned)", "log10(IC50)": 0.70}
{"COMPOUND": "CNCCC[C@H]1Cc2cc(F)ccc2N(c2ccccc2F)S1(=O)=O (single isomer, unassigned)", "log10(IC50)": 1.97}
{"COMPOUND": "CNCCC[C@H]1Cc2cc(F)ccc2N(c2c(F)cccc2F)S1(=O)=O (single isomer, unassigned)", "log10(IC50)": 1.40}

----------
- TARGET_ENTITY: human hNET (Homo sapiens, UniProt P23975)
- Construct: expressed in transfected cells; host or cells: MDCK-Net6 (MDCK cells stably transfected with hNET)
- TEST_PROTOCOL: Functional norepinephrine reuptake assay, Procedure B (6,000 cells/well)
- Assay type: cell-based
- MEASUREMENT_PARAMETERS: MDCK-Net6 cells, 6,000 cells/well, 16 nM 3H-norepinephrine; read-out: Procedure B hNET uptake IC50
pIC50: −log10 of the molar value.
MEASUREMENT_LABEL: pIC50

{"COMPOUND": "CNCCCC1Cc2ccccc2N(c2ccc(F)cc2F)S1(=O)=O (racemic) [Example 99]", "RECORDED_VALUE": 7.21}
{"COMPOUND": "CNCCC[C@@H]1Cc2ccccc2N(c2ccccc2)S1(=O)=O (single isomer, unassigned) [Example 11]", "RECORDED_VALUE": 7.75}
{"COMPOUND": "CN(C)CCN(C)CC1Oc2ccccc2N(c2ccccc2)S1(=O)=O (stereo not shown) [Example 140]", "RECORDED_VALUE": 5.36}
{"COMPOUND": "CNCC[C@H](O)[C@@H]1Cc2ccccc2N(c2ccccc2)S1(=O)=O (single isomer, unassigned) [Example 114]", "RECORDED_VALUE": 7.00}

----------
- TARGET_ENTITY: human hNET (Homo sapiens)
- Construct: expressed in transfected cells; host or cells: MDCK-Net6 (MDCK cells stably transfected with hNET)
- TEST_PROTOCOL: Functional norepinephrine reuptake assay, Procedure A (50,000 cells/well)
- Assay type: cell-based
- MEASUREMENT_PARAMETERS: MDCK-Net6 cells, 50,000 cells/well, 16 nM 3H-norepinephrine; read-out: Procecedure A NE Uptake IC50
Category key, based on recorded IC50: low-valued = under 100 nM, mid-valued = from 100 nM up to 500 nM, high-valued = 500 nM and over

{"MOLECULE": "CNCCCC1Cc2ccccc2N(c2ccccc2)S1(=O)=O (stereo not drawn) [Example 1]", "TARGET_ENTITY": "human hNET (Homo sapiens)", "CATEGORY": "low-valued"}
{"MOLECULE": "CNCCC[C@]1(C)Cc2ccccc2N(c2ccccc2)S1(=O)=O (single isomer, unassigned) [Example 9]", "TARGET_ENTITY": "human hNET (Homo sapiens)", "CATEGORY": "mid-valued"}
{"MOLECULE": "CC(C)NCCCC1Cc2ccccc2N(c2ccccc2)S1(=O)=O (stereo not drawn) [Example 5]", "TARGET_ENTITY": "human hNET (Homo sapiens)", "CATEGORY": "mid-valued"}
{"MOLECULE": "O=S1(=O)C(CCCN2CCCC2)Cc2ccccc2N1c1ccccc1 (stereo not drawn) [Example 6]", "TARGET_ENTITY": "human hNET (Homo sapiens)", "CATEGORY": "mid-valued"}
{"MOLECULE": "O=S1(=O)C(CCCNCc2ccccc2)Cc2ccccc2N1c1ccccc1 (stereo not drawn) [Example 7]", "TARGET_ENTITY": "human hNET (Homo sapiens)", "CATEGORY": "high-valued"}
{"MOLECULE": "CN(C)CCCC1Cc2ccccc2N(c2ccccc2)S1(=O)=O (stereo not drawn) [Example 3]", "TARGET_ENTITY": "human hNET (Homo sapiens)", "CATEGORY": "mid-valued"}
{"MOLECULE": "CCNCCCC1Cc2ccccc2N(c2ccccc2)S1(=O)=O (stereo not drawn) [Example 4]", "TARGET_ENTITY": "human hNET (Homo sapiens)", "CATEGORY": "high-valued"}
{"MOLECULE": "NCCCC1Cc2ccccc2N(c2ccccc2)S1(=O)=O (stereo not drawn) [Example 2]", "TARGET_ENTITY": "human hNET (Homo sapiens)", "CATEGORY": "mid-valued"}
{"MOLECULE": "CNCCCC1Oc2ccccc2N(c2ccccc2)S1(=O)=O (stereo not drawn) [Example 12]", "TARGET_ENTITY": "human hNET (Homo sapiens)", "CATEGORY": "low-valued"}

----------
- TARGET_ENTITY: human hNET (Homo sapiens, UniProt P23975)
- Construct: expressed in transfected cells; host or cells: MDCK-Net6 (MDCK cells stably transfected with hNET)
- TEST_PROTOCOL: Functional norepinephrine reuptake assay, Procedure B (6,000 cells/well)
- Assay type: cell-based
- MEASUREMENT_PARAMETERS: MDCK-Net6 cells, 6,000 cells/well; Conc 6000 nM (6 μM); read-out: Procedure B hNET uptake (% inhibition)
Structures can show the parent of a compound that is named as a salt.
Quick reference for inhibition at 6 µM among some molecules
MEASUREMENT_LABEL: inhibition at 6 µM (%)

{"MOLECULE": "CNCC1Oc2ccccc2N(c2ccccc2)S1(=O)=O (centres unmarked) [Example 144]", "TARGET_ENTITY": "human hNET (Homo sapiens, UniProt P23975)", "MEASUREMENT_LABEL": "inhibition at 6 µM", "RECORDED_VALUE": 53}
{"MOLECULE": "CNCCCC1Cc2ccccc2N(c2ccncc2)S1(=O)=O (racemic) [Example 133]", "TARGET_ENTITY": "human hNET (Homo sapiens, UniProt P23975)", "MEASUREMENT_LABEL": "inhibition at 6 µM", "RECORDED_VALUE": 35}
{"MOLECULE": "O=S1(=O)C(CCCNC2CCC2)Oc2ccccc2N1c1ccccc1 (centres unmarked) [Example 41]", "TARGET_ENTITY": "human hNET (Homo sapiens, UniProt P23975)", "MEASUREMENT_LABEL": "inhibition at 6 µM", "RECORDED_VALUE": 50}
{"MOLECULE": "O=S1(=O)C(CCCNCCCO)Oc2ccccc2N1c1ccccc1 (centres unmarked) [Example 39]", "TARGET_ENTITY": "human hNET (Homo sapiens, UniProt P23975)", "MEASUREMENT_LABEL": "inhibition at 6 µM", "RECORDED_VALUE": 32}
{"MOLECULE": "O=S1(=O)C(CCN2CCCNCC2)Oc2ccccc2N1c1ccccc1 (centres unmarked) [Example 77, Dihydrochloride]", "TARGET_ENTITY": "human hNET (Homo sapiens, UniProt P23975)", "MEASUREMENT_LABEL": "inhibition at 6 µM", "RECORDED_VALUE": 33}

Recorded values, source patent US20080171737A1.
